Quick reference: z-score of the listed items.
Assay: basal RPMI8226 mitochondrial membrane potential changes, profiling panel, cell-based, JC-1 fluorescence, 24 h, 100 nL compound (AID 1169); also: test concentration not given here
Conditions: RPMI8226 myeloma, JC-1 mitochondrial potential fluorescence, higher = more signal
experimental-readout: z-score

- molecule: "Cc1ccc(S[C@]2(C(=O)O)CC(=O)N(Cc3ccccc3Cl)[C@@H]2c2ccc(CO)cc2)cc1"
  recorded-result: -0.509
- molecule: "O=C1OCC=C[C@H]2OC34C=CCN(c5ccc(Cl)cc5)C(=O)[C@H]3N(CCCCCO)C(=O)[C@@H]4[C@@H]12 (stereo partly drawn)"
  recorded-result: 0.536
- molecule: "[N-]=[N+]=NCc1ccccc1C[C@@]1(C(=O)NCCN2CCOCC2)N=C(c2ccc(OCCCO)cc2)O[C@@H]1c1ccccc1N=[N+]=[N-]"
  recorded-result: -0.923
- molecule: "COc1cc2c(cc1OC)CN(C(=O)[C@@H]1[C@H]3C(=O)O[C@H](c4ccccc4)[C@H](c4ccccc4)N3[C@H](c3ccccc3OCCO)[C@@]13C(=O)Nc1ccc(C#CC4(O)CCCCCC4)cc13)CC2"
  recorded-result: -0.792
- molecule: "CC(C)C(O)C1C=CC2C(=O)N(C)C(=O)C2N1N(c1ccccc1)c1ccccc1 (stereo not drawn)"
  recorded-result: -0.286
- molecule: "CC(=O)n1cc(C(O)C2C=CC3C(=O)N(c4ccccc4)C(=O)C3N2Nc2ccccc2)c2ccccc21 (stereo not drawn)"
  recorded-result: -0.502
- molecule: "CN1C(=O)C2C=CC(C(O)Cc3ccccc3)N(N(c3ccccc3)c3ccccc3)C2C1=O (stereo not drawn)"
  recorded-result: 0.257
- molecule: "Cc1ccc(S[C@]2(C(=O)NCc3ccccc3)CC(=O)N(C(C)C)[C@@H]2c2ccc(CO)cc2I)cc1"
  recorded-result: -0.592
- molecule: "CCOC(=O)C[C@H]1[C@H](OC(=O)Cc2ccc3c(c2)OCO3)[C@@H](NC(=O)C2CCCCC2)c2cc(OCCCO)ccc2N1C(=O)c1ccc2ccccc2n1"
  recorded-result: 0.602
- molecule: "CCCCN1CC=CC23O[C@@H]4C=CCOC(=O)[C@@H]4[C@H]2C(=O)N(C(C)CO)[C@@H]3C1=O (stereo partly drawn)"
  recorded-result: -0.768
- molecule: "C=CC[C@@]1(C(=O)N2CCCCC2)N=C(c2ccc(OCCCO)cc2)O[C@@H]1c1ccccc1"
  recorded-result: -1.09
- molecule: "COc1ccc([Si](C)(C)[C@@H]2[C@@H](CCO)O[C@]3(C(=O)N(Cc4cccc(N5C(=O)c6ccccc6Oc6ccccc65)c4)c4ccccc43)[C@H]2C)cc1"
  recorded-result: -0.954
- molecule: "CCN(CC)c1ccc(N2CC=CC34O[C@@H]5/C=C\\CCC(C)OC(=O)C5[C@H]3C(=O)N(CCO)[C@@H]4C2=O)cc1 (stereo partly drawn)"
  recorded-result: -0.22
- molecule: "Cc1ccc(F)cc1S(=O)(=O)N[C@@H]1CCN(Cc2ccc(Oc3ccccc3)cc2)C1"
  recorded-result: -1.19
- molecule: "O=C1C[C@@](C(=O)NCC(F)(F)F)(c2ccc([N+](=O)[O-])cc2)[C@@H](c2ccc(CO)cc2)N1C1CCCCC1"
  recorded-result: 0.685
- molecule: "COCCOC(=O)N1C(=O)[C@@]2(c3cc(C#Cc4ccc(OC)cc4)ccc31)[C@H](C(=O)N1CCN(c3ncccn3)CC1)[C@H]1C(=O)O[C@H](c3ccccc3)[C@H](c3ccccc3)N1[C@@H]2c1ccccc1OCCO"
  recorded-result: -0.403
- molecule: "CC(C)NC(=O)[C@@]1(C)c2ccccc2C(=O)N(C(C)C)[C@H]1c1ccc(CO)cc1"
  recorded-result: 0.713
- molecule: "O=C(NC1CC1)[C@@H]1c2ccccc2C(=O)N(Cc2ccccc2)[C@H]1c1ccc(CO)cc1"
  recorded-result: 0.135
- molecule: "CC(C)(C)N1CC=CC23O[C@@H]4C=CCOC(=O)[C@@H]4[C@H]2C(=O)N(CCCO)[C@@H]3C1=O (stereo partly drawn)"
  recorded-result: -0.379
- molecule: "CC1CC/C=C\\[C@H]2OC34C=CCN(C(C)C)C(=O)[C@H]3N(CCCCCO)C(=O)[C@@H]4C2C(=O)O1 (stereo partly drawn)"
  recorded-result: -0.137
- molecule: "O=C1O[C@@H](c2ccccc2)[C@@H](c2ccccc2)N2[C@@H](c3ccc(O)cc3)[C@]3(C(=O)Nc4ccc(C#CC5=CCCCC5)cc43)[C@@H](C(=O)N3CCN(c4ncccn4)CC3)[C@H]12"
  recorded-result: -0.588
- molecule: "C=C(COC)/C(=C/C[C@@H](OC(=O)c1ccncc1)c1ccc(OCCO)cc1)c1cnc2ccccc2c1"
  recorded-result: 0.674
- molecule: "O=C1OCC=C[C@H]2OC34C=CCN(Cn5nnc6ccccc65)C(=O)[C@H]3N(CCCCCCO)C(=O)[C@@H]4[C@@H]12 (stereo partly drawn)"
  recorded-result: -0.638
- molecule: "C[C@]1(C(=O)O)c2ccccc2C(=O)N(Cc2ccccc2)[C@H]1c1ccc(CO)cc1"
  recorded-result: -0.768
- molecule: "CCOC(=O)C[C@H]1[C@H](OC(=O)c2ccc(-c3ccccc3)cc2)[C@@H](NC(=O)c2ccc3ccccc3c2)c2cc(OCCCO)ccc2N1C(=O)c1ccc2ccccc2n1"
  recorded-result: 0.729
- molecule: "NCCCCCCNC(=O)[C@H]1C[C@H]2C(=O)N[C@@H](Cc3ccccc3)C(=O)N2[C@H]1c1ccc(O)cc1"
  recorded-result: -1
- molecule: "C=C1C2CC3C(=C4C(CO[C@@H]4[C@H]4CCCN4S(=O)(=O)c4ccccc4[N+](=O)[O-])C4C(=O)N(C)C(=O)C34)CC2C(=O)N1C (stereo partly drawn)"
  recorded-result: 0.485
- molecule: "CCOC(=O)[C@H]1C/C=C/C[C@H](C(=O)OCC)C(=O)O[C@H]2[C@@H](OC)O[C@H](CO)[C@@H](OC(=O)Nc3ccc(OC)cc3)[C@@H]2OC1=O"
  recorded-result: -0.292
